# MEASURED TARGET: hERG current (Homo sapiens (Human), UniProt Q12809)
# Sequence (Q12809 whole entry): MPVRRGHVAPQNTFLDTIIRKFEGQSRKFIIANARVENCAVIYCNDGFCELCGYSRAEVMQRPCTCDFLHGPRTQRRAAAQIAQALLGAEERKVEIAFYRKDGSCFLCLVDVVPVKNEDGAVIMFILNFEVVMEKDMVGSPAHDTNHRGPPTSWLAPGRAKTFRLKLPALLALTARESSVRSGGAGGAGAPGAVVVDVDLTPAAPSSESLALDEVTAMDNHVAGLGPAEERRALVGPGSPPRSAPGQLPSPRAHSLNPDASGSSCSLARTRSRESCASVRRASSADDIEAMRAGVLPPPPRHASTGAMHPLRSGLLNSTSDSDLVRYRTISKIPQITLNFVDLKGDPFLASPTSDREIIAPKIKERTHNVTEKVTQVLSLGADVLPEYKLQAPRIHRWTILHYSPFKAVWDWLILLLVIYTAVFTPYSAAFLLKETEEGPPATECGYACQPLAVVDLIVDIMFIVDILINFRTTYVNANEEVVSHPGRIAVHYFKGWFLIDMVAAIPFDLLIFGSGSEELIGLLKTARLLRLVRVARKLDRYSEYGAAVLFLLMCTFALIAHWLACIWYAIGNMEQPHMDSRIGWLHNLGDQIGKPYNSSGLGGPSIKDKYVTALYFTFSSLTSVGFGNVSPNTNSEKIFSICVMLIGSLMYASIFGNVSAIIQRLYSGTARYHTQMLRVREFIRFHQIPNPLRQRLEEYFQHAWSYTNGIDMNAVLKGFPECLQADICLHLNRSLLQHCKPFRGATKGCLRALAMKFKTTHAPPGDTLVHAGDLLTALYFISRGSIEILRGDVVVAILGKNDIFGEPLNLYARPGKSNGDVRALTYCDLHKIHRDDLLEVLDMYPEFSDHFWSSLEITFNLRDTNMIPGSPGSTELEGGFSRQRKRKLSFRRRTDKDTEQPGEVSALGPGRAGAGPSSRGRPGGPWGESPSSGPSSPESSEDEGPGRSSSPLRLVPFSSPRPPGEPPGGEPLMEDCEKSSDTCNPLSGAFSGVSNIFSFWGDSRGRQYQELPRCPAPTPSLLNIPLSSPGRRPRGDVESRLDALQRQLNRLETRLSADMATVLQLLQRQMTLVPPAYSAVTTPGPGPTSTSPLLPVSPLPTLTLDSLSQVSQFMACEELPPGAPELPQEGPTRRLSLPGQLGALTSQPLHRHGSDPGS
# ASSAY EXPLANATION: cell-based
Output yes (1) for records whose IC50 is lower than 1 µM, no (0) for records at or above 1 µM.

MOLECULE: N#Cc1cnc(Nc2cc(-c3c(O[C@@H]4CCC[C@H](N)C4)cnc4c3OCC4)[nH]n2)cn1 [Example 24]
LABEL CLASS: no (0)

MOLECULE: N#Cc1cnc(Nc2cc(-c3c(OCC4(F)CNC4)cnc4cccnc34)[nH]n2)cn1 [Example 35]
LABEL CLASS: no (0)

MOLECULE: N#Cc1cnc(Nc2cc(-c3c(OCCCN)ccc4c3OCC4)[nH]n2)cn1 [Example 3]
LABEL CLASS: yes (1)

MOLECULE: N#Cc1cnc(Nc2cc(-c3c(OCCCN)ccc4ccnn34)[nH]n2)cn1 [Example 6]
LABEL CLASS: no (0)

MOLECULE: N#Cc1cnc(Nc2cc(-c3c(OCC4(CN)CC4)ccc4c3OCC4)[nH]n2)cn1 [Example 4]
LABEL CLASS: yes (1)

MOLECULE: N#Cc1cnc(Nc2cc(-c3c(OCC4(CN)CC4)cnc4c3OCC4)[nH]n2)cn1 [Example 14]
LABEL CLASS: no (0)

MOLECULE: N#Cc1cnc(Nc2cc(-c3c(O[C@H]4C[C@H](N)[C@H]5C[C@H]54)cnc4c3OCC4)[nH]n2)cn1 [Example 29]
LABEL CLASS: no (0)

====

Here, each record is paired with measured pIC50 data.
# MEASURED TARGET: CHK1 kinase (Homo sapiens (Human))
# Sequence (O14757 whole entry): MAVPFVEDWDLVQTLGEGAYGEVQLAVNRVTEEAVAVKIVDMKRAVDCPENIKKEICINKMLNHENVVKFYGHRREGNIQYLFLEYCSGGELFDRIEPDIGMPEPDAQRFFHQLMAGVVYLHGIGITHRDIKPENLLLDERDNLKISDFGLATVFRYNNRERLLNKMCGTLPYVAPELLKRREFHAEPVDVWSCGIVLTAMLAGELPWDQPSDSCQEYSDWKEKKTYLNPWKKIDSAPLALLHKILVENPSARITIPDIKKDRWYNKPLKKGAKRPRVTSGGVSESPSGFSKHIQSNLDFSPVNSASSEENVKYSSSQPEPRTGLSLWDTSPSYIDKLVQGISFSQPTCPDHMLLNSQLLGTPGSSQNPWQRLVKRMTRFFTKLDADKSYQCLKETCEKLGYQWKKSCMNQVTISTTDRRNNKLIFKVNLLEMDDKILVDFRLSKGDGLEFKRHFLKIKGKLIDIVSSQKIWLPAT
pIC50: −log10 of the molar value.
ASSAY READOUT: pIC50

ITEM SMILES: N#Cc1cnc(Nc2cc(-c3c(OCCCN)cnc4cccnc34)[nH]n2)cn1
ASSAY READOUT: pIC50
VAL: 9.30

ITEM SMILES: N#Cc1cnc(Nc2cc(-c3c(OCC(F)(F)CN)cnc4cccnc34)[nH]n2)cn1
ASSAY READOUT: pIC50
VAL: 9.19

ITEM SMILES: N#Cc1cnc(Nc2cc(-c3c(OCC4(CN)CC4)ccc4ccnn34)[nH]n2)cn1
ASSAY READOUT: pIC50
VAL: 9.57

ITEM SMILES: N#Cc1cnc(Nc2cc(-c3c(OCCCN)cnc4c3OCC4)[nH]n2)cn1
ASSAY READOUT: pIC50
VAL: 9.38

ITEM SMILES: Cc1nc2ccc(OCCCN)c(-c3cc(Nc4cnc(C#N)cn4)n[nH]3)c2o1
ASSAY READOUT: pIC50
VAL: 9.35

ITEM SMILES: N#Cc1cnc(Nc2cc(-c3c(OCCCN)ccc4ccnn34)[nH]n2)cn1
ASSAY READOUT: pIC50
VAL: 9.68

ITEM SMILES: C[C@@H](Oc1cnc2c(c1-c1cc(Nc3cnc(C#N)cn3)n[nH]1)OCC2)C1CNC1
ASSAY READOUT: pIC50
VAL: 9.37

ITEM SMILES: N#Cc1cnc(Nc2cc(-c3c(OCC4(C(F)F)CNC4)cnc4c3OCC4)[nH]n2)cn1
ASSAY READOUT: pIC50
VAL: 9.41

ITEM SMILES: CC1(COc2cnc3c(c2-c2cc(Nc4cnc(C#N)cn4)n[nH]2)OCC3)CNC1
ASSAY READOUT: pIC50
VAL: 9.64

ITEM SMILES: CC1(COc2ccc3ccnn3c2-c2cc(Nc3cnc(C#N)cn3)n[nH]2)CNC1
ASSAY READOUT: pIC50
VAL: 9.47

ITEM SMILES: N#Cc1cnc(Nc2cc(-c3c(OCCCN)cnc4ccnn34)[nH]n2)cn1
ASSAY READOUT: pIC50
VAL: 8.77

ITEM SMILES: N#Cc1cnc(Nc2cc(-c3c(O[C@@H]4CCC[C@H]4CN)cnc4cccnc34)[nH]n2)cn1
ASSAY READOUT: pIC50
VAL: 9.12

ITEM SMILES: CNCCCOc1cnc2c(c1-c1cc(Nc3cnc(C#N)cn3)n[nH]1)OCC2
ASSAY READOUT: pIC50
VAL: 9.66

ITEM SMILES: N#Cc1cnc(Nc2cc(-c3c(OCC4(CN)CC4)ccc4ccoc34)[nH]n2)cn1
ASSAY READOUT: pIC50
VAL: 9.59

ITEM SMILES: N#Cc1cnc(Nc2cc(-c3c(OCC4(CN)CC4)cnc4cccnc34)[nH]n2)cn1
ASSAY READOUT: pIC50
VAL: 9.47

ITEM SMILES: N#Cc1cnc(Nc2cc(-c3c(OCC4(CN)CC(F)(F)C4)cnc4cccnc34)[nH]n2)cn1
ASSAY READOUT: pIC50
VAL: 9.03

ITEM SMILES: C[C@H](CN)COc1cnc2c(c1-c1cc(Nc3cnc(C#N)cn3)n[nH]1)OCC2
ASSAY READOUT: pIC50
VAL: 9.37

====

# Tested on: ES-2 cells
# ASSAY EXPLANATION: Cell growth suppression experiment (ES-2)
# Format: cell-based
# CONDITION LABEL: Homo sapiens, 48 h, cultured 2 days, CellTiter-Glo 3D
ASSAY READOUT: IC50 (nM)

MOLECULE: N#Cc1cnc(Nc2cc(-c3c(OCCCN)ccc4ccoc34)[nH]n2)cn1 [Example 2]
ASSAY READOUT: IC50
UNIT SYMBOL: nM
VAL: 2.9
//
MOLECULE: C[C@@H](Oc1cnc2c(c1-c1cc(Nc3cnc(C#N)cn3)n[nH]1)OCC2)C1CNC1 [Example 25]
ASSAY READOUT: IC50
UNIT SYMBOL: nM
VAL: 6.4
//
MOLECULE: N#Cc1cnc(Nc2cc(-c3c(O[C@@H]4CCC[C@H](N)C4)cnc4c3OCC4)[nH]n2)cn1 [Example 24]
ASSAY READOUT: IC50
UNIT SYMBOL: nM
VAL: 12.7
